endpoint name: logP
Answer using only a numeral; do not append any unit.

Find the recorded logP belonging to FC(F)(F)c1nc2cc(Br)c(Br)cc2[nH]1 and report it.
4.15

What value of measured logP is listed for FC(F)(F)c1nc2c(Cl)c(Cl)cc(Cl)c2[nH]1 ?
3.78

Can you look up the measured logP of O=[N+]([O-])c1ccc2[nH]c(C(F)(F)F)nc2c1 for me?
2.68

# get_value(readout='logP', item= FC(F)(F)c1nc2c(Br)c(Br)c(Br)cc2[nH]1 )
4.08
